This listing pairs binders with measured EC50.
- system: T1, Human P-cadherin on cells (human, UniProt P22223 108-829)
- T1 construct: whole, on cells; Endogenous P-cadherin on tumour cell lines; also called hPro1
- T1 sequence (P22223 108-829): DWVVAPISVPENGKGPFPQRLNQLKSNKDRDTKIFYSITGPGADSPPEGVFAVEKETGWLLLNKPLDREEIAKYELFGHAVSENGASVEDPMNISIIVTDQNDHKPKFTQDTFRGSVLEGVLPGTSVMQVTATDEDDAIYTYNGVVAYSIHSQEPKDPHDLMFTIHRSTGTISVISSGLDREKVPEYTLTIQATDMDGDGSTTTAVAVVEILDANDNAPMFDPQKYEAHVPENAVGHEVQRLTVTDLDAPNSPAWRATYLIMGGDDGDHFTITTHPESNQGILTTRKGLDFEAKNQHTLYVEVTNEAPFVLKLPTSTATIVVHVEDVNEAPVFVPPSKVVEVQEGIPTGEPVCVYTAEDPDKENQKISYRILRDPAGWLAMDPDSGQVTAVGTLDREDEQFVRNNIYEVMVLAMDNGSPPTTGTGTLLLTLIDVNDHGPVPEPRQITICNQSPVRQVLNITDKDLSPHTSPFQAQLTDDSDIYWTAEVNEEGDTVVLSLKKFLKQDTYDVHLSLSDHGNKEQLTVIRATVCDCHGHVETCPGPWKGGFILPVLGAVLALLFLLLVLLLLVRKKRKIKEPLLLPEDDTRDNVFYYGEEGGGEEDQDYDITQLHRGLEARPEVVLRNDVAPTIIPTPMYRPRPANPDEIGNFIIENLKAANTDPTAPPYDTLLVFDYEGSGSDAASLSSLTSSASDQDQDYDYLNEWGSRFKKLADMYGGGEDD
- methodSummary: FACS on HCT-116 cells
- Protocol: Binding of the test antibodies to P-cadherin expressed on cells was determined by flow cytometry analysis. […] After the final wash, cells were resuspended in 100 μL 1% BSA/1×PBS (Ca+/Mg+) and fluorescence values were measured with a FACS Canto II cytometer (BD Biosciences). The amount of cell surface bound anti-P-cadherin antibody was assessed by measuring the mean fluorescence (MFI). […] Binding of the antibodies to human P-cadherin expressed on cells was determined by flow cytometry analysis.
Report the figure in pM without appending any unit label.

Recorded EC50 of W3195-1.53.1-p6-uIgG1LV320 (antibody, V domains shown, also called W3195-1.53.1-p6-uIgG1V320; W3195-p6-V320 antibody) VH: QVQLQESGPGLVKPSETLSLTCTVSGGSVISDNYYWTWVRQPPGKGLEFIGYIYYRGSTNYNPSLKNRVIISIDTSRNQFSLDLNSVTAADTAVYYCARDRRTGTSLPFDNWGQGTLVTVSS VL: SYELTQPPSVSVSPGQTAQITCSGDKLGDKFASWYQQKSGQSPVVVIYQDNKRPSGFPERFSGSNSGNTATLTISGTQAMDEADYYCQAWDSSIVVFGGGTKLTVLG , please.
140

Any idea what its EC50 is? The binder is W3195-1.53.1-p7-uIgG1LV320 (antibody, V domains shown, also called W3195-1.53.1-p7-uIgG1V320; W3195-p7-V320 antibody) VH: QVQLQESGPGLVKPSETLSLTCTVSGGSVISDNYYWTWVRQPPGKGLEFIGYIYYRGSTNYNPSLKNRVIISIDTSRNQFSLDLNSVTAADTAVYYCARDRRTGSSLPFDNWGQGTLVTVSS VL: SYELTQPPSVSVSPGQTAQITCSGDKLGDKFASWYQQKSGQSPVVVIYQDNKRPSGFPERFSGSNSGNTATLTISGTQAMDEADYYCQAWDSSIVVFGGGTKLTVLG
140

// returns reported EC50 for input W3195-1.53.1-p4-uIgG1LV320 (antibody, V domains shown, V320 = IgG1 Fc with L234A/L235A; also called W3195-1.53.1-p4-uIgG1V320; W3195-p4-V320 antibody) VH: QVQLQESGPGLVKPSETLSLTCTVSGGSVISDNYYWTWVRQPPGKGLEFIGYIYYRGSTNYNPSLKNRVIISIDTSRNQFSLDLNSVTAADTAVYYCARDRRTGNALPFDNWGQGTLVTVSS VL: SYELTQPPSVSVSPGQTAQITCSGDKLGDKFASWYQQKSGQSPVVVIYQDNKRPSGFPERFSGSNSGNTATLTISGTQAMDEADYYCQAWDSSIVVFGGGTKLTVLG
140

What does the data say about its EC50? Entry: W3195-1.53.1-p5-uIgG1LV320 (antibody, V domains shown, also called W3195-1.53.1-p5-uIgG1V320; W3195-p5-V320 antibody) VH: QVQLQESGPGLVKPSETLSLTCTVSGGSVISDNYYWTWVRQPPGKGLEFIGYIYYRGSTNYNPSLKNRVIISIDTSRNQFSLDLNSVTAADTAVYYCARDRRTGQSLPFDNWGQGTLVTVSS VL: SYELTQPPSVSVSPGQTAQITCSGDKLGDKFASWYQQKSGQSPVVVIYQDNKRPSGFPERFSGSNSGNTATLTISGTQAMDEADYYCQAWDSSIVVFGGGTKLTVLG
170
